Answer each item with its documented apparent KD of MS2 coat protein.
Test system: MS2 coat protein
Assay: apparent KD of MS2 coat protein; designed switch direction (-1 OFF switch, 1 ON switch): -1; higher = weaker reporter binding
Details: input ligand: FMN 200 uM
Numbers only, in nM.

Examples from the recorded data:
UAUAUGUCAGGAUAUUAGUAGUAAAUGAAUAAAAUUAUUACUGAGAAGGGACAUGAGGAUCACCCAUGUGCUUC [Mat - Exclusion 4 - Eli Mod - D25] (Eterna round: R97, puzzle: Exclusion 4)    224
ACUGGUCGAGGAUAUACAUGACGUGCUUCGGCACGAGAUCUACAUGAGGAUCACCCAUGUAGAAGGCGACCAGU [E2/11-A2] (Eterna round: R97, puzzle: Exclusion 2)    735
AUAUCACAUGAGGAUCACCCAUGUCAGGAUAUGAUACUAUGUACUUCGGUACAUAGUAUCAGAAGGGAUAUGAA [Ex1-3: 66] (Eterna round: R96, puzzle: Exclusion 1)    83.3
GGUCAGAUGGUAGGAUAUCCAUAUCGAGUGACCCUUUCAUAACAUGAGGAUCACCCAUGUCGGUGGGAGAAGGGCUGUACGGCG [salish99_ExNG02_R04_021] (Eterna round: R96, puzzle: Exclusion NG 2)    34.8

Lab book: apparent KD of MS2 coat protein of AUCCUUAACAAGGAUAUCGGGCGGGAAAUUGUUUGAGAAGGUGUAACAUGAGGAUCACCCAUGUUAAACGUGGA [-18.8, -18.6 kcal, A 32%] (Eterna round: R97, puzzle: Exclusion 6) noted as 22.3
